testedSystem: 3-phosphoinositide-dependent protein kinase 1 (Homo sapiens)
testProtocol: Inhibition of recombinant human N-terminal His6-fused pdk1 expressed in Sf9 insect cells at 10 uM using tetra (LRRWSLG) as substrate after 60 mins in presence of [gamma-33P]-ATP by microplate scintillation counting method relative to control
quantityMeasured: inhibition (%)

Worked cases, inhibition given:
- lineNotation: "O=S(=O)(NCCc1cccc(F)c1)c1cc(-c2cccc3c2Sc2ccccc2S3)cc(C(F)(F)F)c1"
  inhibition / %: 35
- lineNotation: "O=S(=O)(NCCc1cccc(F)c1)c1cc(-c2cccc3c2oc2ccccc23)cc(C(F)(F)F)c1"
  inhibition / %: 2.4
- lineNotation: "O=S(=O)(NCCc1cccc(F)c1)c1cc(-c2ccc(COc3cccc4ccccc34)cc2)cc(C(F)(F)F)c1"
  inhibition / %: 35.6

1: O=S(=O)(NCCc1cccc(F)c1)c1cc(-c2cccc(S(=O)(=O)N3CCCC3)c2)cc(C(F)(F)F)c1
2: COCCc1ccc(OCc2ccc(-c3cc(C(F)(F)F)cc(S(=O)(=O)NCCc4cccc(F)c4)c3)cc2)cc1
**Q:** In terms of reported inhibition, does 1 or 2 have the smaller number? Bench note: the answer is the label of the chosen record.
**A:** 1

P: O=Cc1ccc(-c2cc(C(F)(F)F)cc(S(=O)(=O)NCCc3cccc(F)c3)c2)s1
Q: O=S(=O)(NCCc1cccc(F)c1)c1cc(-c2cc3ccccc3[nH]2)cc(C(F)(F)F)c1
**Q:** Between the two listed entries P and Q , which has its inhibition at the higher number? Lab log: write the label of the selected item as the result.
**A:** Q

A: O=S(=O)(NCCc1cccc(F)c1)c1cc(-c2ccccc2COc2cccc(C(F)(F)F)c2)cc(C(F)(F)F)c1
B: COc1cc(-c2cc(C(F)(F)F)cc(S(=O)(=O)NCCc3cccc(F)c3)c2)ccc1F
C: O=S(=O)(NCCc1cccc(F)c1)c1cc(-c2ccc(F)nc2)cc(C(F)(F)F)c1
**Q:** Order the records, beginning with the lowest inhibition and ending with the highest. Give me the labels in the order the question wants.
**A:** C, B, A

###

testedSystem: UniProt:Q15303
Sequence (Q15303 whole entry, the tested form may be a part): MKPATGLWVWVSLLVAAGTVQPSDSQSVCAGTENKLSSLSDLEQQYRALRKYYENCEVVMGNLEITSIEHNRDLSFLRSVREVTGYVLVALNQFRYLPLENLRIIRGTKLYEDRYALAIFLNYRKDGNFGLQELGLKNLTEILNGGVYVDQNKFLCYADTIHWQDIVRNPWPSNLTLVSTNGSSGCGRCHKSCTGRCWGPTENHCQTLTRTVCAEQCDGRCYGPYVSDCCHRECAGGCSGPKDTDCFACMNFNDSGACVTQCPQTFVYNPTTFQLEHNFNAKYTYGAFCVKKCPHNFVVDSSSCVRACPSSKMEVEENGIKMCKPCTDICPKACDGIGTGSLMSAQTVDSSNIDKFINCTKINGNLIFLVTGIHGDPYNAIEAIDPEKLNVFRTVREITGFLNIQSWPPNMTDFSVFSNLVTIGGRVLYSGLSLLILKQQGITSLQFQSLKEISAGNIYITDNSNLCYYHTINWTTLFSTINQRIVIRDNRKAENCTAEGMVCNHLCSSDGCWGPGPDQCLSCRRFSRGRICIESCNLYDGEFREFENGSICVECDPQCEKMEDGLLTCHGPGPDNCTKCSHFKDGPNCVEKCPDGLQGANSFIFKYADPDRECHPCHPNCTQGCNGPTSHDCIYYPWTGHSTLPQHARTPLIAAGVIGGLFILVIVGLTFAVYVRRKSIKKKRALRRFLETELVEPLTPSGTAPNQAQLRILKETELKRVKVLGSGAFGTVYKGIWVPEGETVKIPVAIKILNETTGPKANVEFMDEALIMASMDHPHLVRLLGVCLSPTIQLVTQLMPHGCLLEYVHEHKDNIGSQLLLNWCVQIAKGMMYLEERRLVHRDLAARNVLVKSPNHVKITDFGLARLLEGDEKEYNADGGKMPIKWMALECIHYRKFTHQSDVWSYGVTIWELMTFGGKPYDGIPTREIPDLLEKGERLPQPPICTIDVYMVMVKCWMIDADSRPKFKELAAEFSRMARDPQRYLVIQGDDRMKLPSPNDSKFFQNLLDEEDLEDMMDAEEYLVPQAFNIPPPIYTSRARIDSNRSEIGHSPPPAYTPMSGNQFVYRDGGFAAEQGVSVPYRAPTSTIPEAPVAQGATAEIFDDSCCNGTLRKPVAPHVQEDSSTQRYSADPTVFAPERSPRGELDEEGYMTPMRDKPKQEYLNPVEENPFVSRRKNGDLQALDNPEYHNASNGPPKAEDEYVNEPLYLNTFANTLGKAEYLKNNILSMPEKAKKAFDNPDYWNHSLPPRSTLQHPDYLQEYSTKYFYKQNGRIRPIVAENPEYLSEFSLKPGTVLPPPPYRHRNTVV
testProtocol: Inhibition of recombinant human N-terminal GST-His6-fused erbB4 expressed in Sf9 insect cells at 10 uM using poly (Glu, Tyr) 4:1 as substrate after 60 mins in presence of [gamma-33P]-ATP by microplate scintillation counting method relative to control
quantityMeasured: inhibition (%)

Worked set:
- lineNotation: "O=S(=O)(NCCc1cccc(F)c1)c1cc(-c2ccccc2COc2cccc(C(F)(F)F)c2)cc(C(F)(F)F)c1"
  readoutValue: 63.1
- lineNotation: "COC(=O)c1ccc(-c2cc(C(F)(F)F)cc(S(=O)(=O)NCCc3cccc(F)c3)c2)cn1"
  readoutValue: 15.8

P: O=S(=O)(NCCc1cccc(F)c1)c1cc(-c2ccc(COc3cccc(C(F)(F)F)c3)cc2)cc(C(F)(F)F)c1
Q: O=S(=O)(NCCc1cccc(F)c1)c1cc(-c2cccc(S(=O)(=O)N3CCCC3)c2)cc(C(F)(F)F)c1
R: COc1cc(-c2cc(C(F)(F)F)cc(S(=O)(=O)NCCc3cccc(F)c3)c2)c(OC)nn1
**Q:** Provide the items ranked by increasing inhibition. Answer format: list of labels, ordered as asked.
**A:** R, Q, P
